assay: Selectivity index, ratio of IC50 for cytotoxicity against rat L6 cells to IC50 for antileishmanial activity against Leishmania donovani MHOM/ET/67/L82 amastigotes; type: toxicity, cell-based; conditions: read-out: Ratio IC50
Cut-off 4 on selectivity ratio: below means yes (1), at or above means no (0).

# compound, discreteLabel
records = [
    ("COc1ccc([C@H]2Oc3ccccc3[C@@H]2CO)cc1 (racemic)", "yes (1)"),
    ("COc1cc([C@H]2Oc3c(OC)cc(/C=C/C(=O)OC(C)(C)C)cc3[C@@H]2C(=O)OC(C)(C)C)ccc1O (racemic)", "no (0)"),
    ("CC(C)OC(=O)/C=C/c1cc(O)c2c(c1)[C@H](C(=O)OC(C)C)[C@@H](c1ccc(O)c(O)c1)O2 (racemic)", "no (0)"),
    ("COc1cc([C@H]2Oc3ccccc3[C@@H]2C)cc(I)c1O (racemic)", "yes (1)"),
    ("COc1ccc([C@H]2Oc3ccc(Br)cc3[C@@H]2C)cc1Br (racemic)", "yes (1)"),
    ("COc1cc([C@H]2Oc3ccc(Br)cc3[C@@H]2CO)ccc1O (racemic)", "yes (1)"),
    ("COC(=O)/C=C/c1cc(OC)c2c(c1)[C@H](C(=O)OC)[C@@H](c1ccc(O)c(OC)c1)O2 (racemic)", "yes (1)"),
    ("CCCNC(=O)/C=C/c1cc(OC)c2c(c1)[C@H](C(=O)NCCC)[C@@H](c1ccc(O)c(OC)c1)O2 (racemic)", "no (0)"),
]

----------
system: Leishmania donovani; test: Antileishmanial activity against Leishmania donovani MHOM/ET/67/L82 amastigotes assessed as growth inhibition incubated for 70 hrs by resazurin based inverted microscopic analysis; assay type: functional, organism-based; conditions: Leishmania donovani, MHOM/ET/67/L82, 70 h
log10(IC50) reference
reportedMetric: log10(IC50) (log10 of the value in µM)

# compound, log10(IC50)
records = [
    ("COc1ccc([C@H]2Oc3ccc(Br)cc3[C@@H]2C)cc1Br (racemic)", 1.47),
    ("CCCCOC(=O)/C=C/c1cc(O)c2c(c1)[C@H](C(=O)OCCCC)[C@@H](c1ccc(O)c(O)c1)O2 (racemic)", 0.22),
    ("COc1cc([C@H]2Oc3ccc(Br)cc3[C@@H]2C)cc(Br)c1O (racemic)", 1.24),
    ("CC(=O)OC[C@H]1c2cc(Br)ccc2O[C@@H]1c1ccc(O)cc1 (racemic)", 1.14),
    ("C=CCOC(=O)/C=C/c1cc(O)c2c(c1)[C@H](C(=O)OCC=C)[C@@H](c1ccc(O)c(O)c1)O2 (racemic)", 0.80),
    ("CC(C)(C)OC(=O)/C=C/c1cc(O)c2c(c1)[C@H](C(=O)OC(C)(C)C)[C@@H](c1ccc(O)c(O)c1)O2 (racemic)", 0.22),
    ("CC(C)CC(=O)/C=C/c1cc(O)c2c(c1)[C@H](C(=O)CC(C)C)[C@@H](c1ccc(O)c(O)c1)O2 (racemic)", 0.65),
    ("COc1ccc([C@H]2Oc3ccccc3[C@@H]2CO)cc1OC (racemic)", 2.13),
    ("C/C=C/c1cc(OC)c2c(c1)[C@H](C)[C@@H](c1ccc(O)c(OC)c1)O2 (racemic)", 0.81),
    ("COc1cc([C@H]2Oc3ccc(Br)cc3[C@@H]2C)c(Br)cc1O (racemic)", 1.18),
    ("COc1cc([C@H]2Oc3ccccc3[C@@H]2C)ccc1O (racemic)", 1.77),
    ("CC(C)(C)OC(=O)/C=C/c1ccc2c(c1)[C@H](C(=O)OC(C)(C)C)[C@@H](c1ccc(O)cc1)O2 (racemic)", 0.78),
]
